Origin of the recorded values: PubChem BioAssay AID2060614

Test system: 598228-144-R-J1-PDC complex spheroids, viability;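 note: spheroids exposed to compounds for seven days before readout; 100% = DMSO vehicle control wells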
test-details: Anticancer human tumor 598228-144-R-J1-PDC patient-derived serous endometrial adenocarcinoma cell line growth inhibition [CLK]
settings: second compound 0.0316 µM; first compound 3.16 µM; hits give low values
quantity-name: viability, T/C (%)

• C=CC(=O)N1CCN(c2nc(=O)n(-c3c(C)ccnc3C(C)C)c3nc(-c4c(O)cccc4F)c(F)cc23)C(C)C1 (stereo not given) + CNC(=O)c1ccc(Nc2nc(OC3CCCC3)c3c(-c4ccc5nc(C)oc5c4)c[nH]c3n2)c(OC)c1 = 135
• C=CC(=O)N1CCN(c2nc(=O)n(-c3c(C)ccnc3C(C)C)c3nc(-c4c(O)cccc4F)c(F)cc23)C(C)C1 (stereo not given) + CN1CCN(c2cc(C(=O)Nc3cc4cc(-c5cnn(C)c5)ccc4cn3)ccn2)CC1 = 159
• COC1C=CCC(C)C(C)S(=O)(=O)NC(=O)c2ccc3c(c2)N(CC2CCC21)CC1(CCCc2cc(Cl)ccc21)CO3 (stereo not given) + CN1CCN(c2cc(C(=O)Nc3cc4cc(-c5cnn(C)c5)ccc4cn3)ccn2)CC1 = 69.2
• C#Cc1c(F)ccc2cc(O)cc(-c3ncc4c(N5CC6CCC(C5)N6)nc(OCC56CCCN5CC(F)C6)nc4c3F)c12 (stereo not given) + CN1CCN(c2cc(C(=O)Nc3cc4cc(-c5cnn(C)c5)ccc4cn3)ccn2)CC1 = 117
• CC(CO)NC(=O)c1cc(-c2ccc(Cl)cc2)nn(-c2cnn(C)c2)c1=O (stereo not given) + CN1CCN(c2cc(C(=O)Nc3cc4cc(-c5cnn(C)c5)ccc4cn3)ccn2)CC1 = 115
• CCCS(=O)(=O)Nc1ccc(F)c(C(=O)c2c[nH]c3ncc(-c4ccc(Cl)cc4)cc23)c1F + CN1CCN(c2cc(C(=O)Nc3cc4cc(-c5cnn(C)c5)ccc4cn3)ccn2)CC1 = 115
• CC1COCCN1c1cc(C2(S(C)(=N)=O)CC2)nc(-c2ccnc3[nH]ccc23)n1 (stereo not given) + CN1CCN(c2cc(C(=O)Nc3cc4cc(-c5cnn(C)c5)ccc4cn3)ccn2)CC1 = 63.5
• Nc1ccccc1NC(=O)c1ccc(CNC(=O)OCc2cccnc2)cc1 + CNC(=O)c1ccc(Nc2nc(OC3CCCC3)c3c(-c4ccc5nc(C)oc5c4)c[nH]c3n2)c(OC)c1 = 23.1
• CC(CO)NC(=O)c1cc(-c2ccc(Cl)cc2)nn(-c2cnn(C)c2)c1=O (stereo not given) + CNC(=O)c1ccc(Nc2nc(OC3CCCC3)c3c(-c4ccc5nc(C)oc5c4)c[nH]c3n2)c(OC)c1 = 92.8
• CC1(C)CCC(CN2CCN(c3ccc(C(=O)NS(=O)(=O)c4ccc(NCC5CCOCC5)c([N+](=O)[O-])c4)c(Oc4cnc5[nH]ccc5c4)c3)CC2)=C(c2ccc(Cl)cc2)C1 + CNC(=O)c1ccc(Nc2nc(OC3CCCC3)c3c(-c4ccc5nc(C)oc5c4)c[nH]c3n2)c(OC)c1 = 100
